// data source = the supplement of paper PMC7380943

test system: CLZ3 (HCA2 human fibroblast dual HR-NHEJ reporter); assay: NHEJ repair efficiency (GFP+ cells) relative to control (log10 fold); higher = more non-homologous end joining; conditions: 5 µM; doxycycline 0.5 ug/mL;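 also: compound given one day ahead of doxycycline, which switches on I-SceI endonuclease to cut the chromosomally integrated reporter and create DSBs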
metric-name: NHEJ repair efficiency (log10)
Kindly provide the number alone.

Worked cases, answers included:
[
  {
    "molecule": "CO[C@]1(CC[C@H](C)CO[C@@H]2O[C@H](CO)[C@@H](O)[C@H](O)[C@H]2O)O[C@H]2C[C@H]3[C@@H]4CC[C@@H]5C[C@@H](O[C@@H]6O[C@H](CO)[C@H](O)[C@H](O)[C@H]6O[C@@H]6O[C@H](CO)[C@@H](O)[C@H](O)[C@H]6O)CC[C@]5(C)[C@H]4CC[C@]3(C)[C@H]2[C@@H]1C [Anemarsaponin E]",
    "NHEJ repair efficiency (log10)": 0.0103
  },
  {
    "molecule": "COc1cc(C2Oc3cc([C@H]4Oc5cc(O)cc(O)c5C(=O)[C@@H]4O)ccc3OC2CO)ccc1O (stereo not given in full) [Silybin (Silymarin)]",
    "NHEJ repair efficiency (log10)": 0.131
  },
  {
    "molecule": "O=c1c(O)c(-c2cc(O)c(O)c(O)c2)oc2cc(O)cc(O)c12 [Myricetin]",
    "NHEJ repair efficiency (log10)": 0.0547
  },
  {
    "molecule": "CC[C@H](CC[C@@H](C)[C@H]1CC[C@H]2[C@@H]3CC=C4C[C@@H](O)CC[C@]4(C)[C@H]3CC[C@]12C)C(C)C [β-Sitosterol]",
    "NHEJ repair efficiency (log10)": 0.038
  }
]

Lab note: next molecule to report on.
Problem: Using the record for CC(=O)S[C@@H]1CC2=CC(=O)CC[C@]2(C)[C@H]2CC[C@@]3(C)[C@@H](CC[C@@]34CCC(=O)O4)[C@H]12 [Spironolactone] , report its NHEJ repair efficiency (log10).
Result: 0.15
